Parameter: IC50. Scope: all listed entries.
# System: breast cancer cell line MCF-7
# PROCEDURE TEXT: IC50 values on breast cancer cell line MCF-7
# Assay type: cell-based
# SETTINGS: Homo sapiens, MCF7, 72 h, read-out: MCF-7(IC50, nM)

SMILES REPR: CO[C@H]1C(=O)[C@]2(C)[C@@H](OC(=O)N(C)C)C[C@H]3OC[C@@]3(OC(C)=O)[C@H]2[C@H](OC(=O)c2ccccc2)[C@]2(O)C[C@H](OC(=O)[C@H](O)[C@@H](NC(=O)c3ccccc3)c3ccccc3)C(C)=C1C2(C)C
IC50, nM: 64.7
//
SMILES REPR: CO[C@H]1C(=O)[C@]2(C)[C@@H](OC(=O)N(C)C)C[C@H]3OC[C@@]3(OC(C)=O)[C@H]2[C@H](OC(=O)c2ccccc2)[C@]2(O)C[C@H](OC(=O)[C@H](O)[C@H](CC(C)C)NC(=O)OC(C)(C)C)C(C)=C1C2(C)C
IC50, nM: 13.3

---

# PROCEDURE TEXT: Caco-2 cell monolayer membrane transport assay
# SETTINGS: human, Caco-2, Papp A-B, Sample-02, Caco-2; A-B; Sample-02
Category scheme (Papp A→B): zone 1 (below 4 ×10⁻⁶ cm/s), zone 2 (4 ×10⁻⁶ cm/s to below 8 ×10⁻⁶ cm/s), zone 3 (8 ×10⁻⁶ cm/s or more)

SMILES REPR: CO[C@H]1C[C@H]2OC[C@@]2(OC(C)=O)[C@H]2[C@H](OC(=O)c3ccccc3)[C@]3(O)C[C@H](OC(=O)[C@H](O)[C@H](CC(C)C)NC(=O)OC(C)(C)C)C(C)=C([C@@H](OC(=O)N(C)C)C(=O)[C@]12C)C3(C)C
LABEL: zone 3
//
SMILES REPR: CO[C@H]1C(=O)[C@]2(C)C=C[C@@H](O)[C@](CO)(OC(C)=O)[C@H]2[C@H](OC(=O)c2ccccc2)[C@]2(O)C[C@H](OC(=O)[C@H](O)[C@@H](NC(=O)c3ccccc3)c3ccccc3)C(C)=C1C2(C)C
LABEL: zone 1
//
SMILES REPR: CCSC(=O)O[C@H]1C(=O)[C@]2(C)[C@@H](OC)C[C@H]3OC[C@@]3(OC(C)=O)[C@H]2[C@H](OC(=O)c2ccccc2)[C@]2(O)C[C@H](OC(=O)[C@H](O)[C@@H](NC(=O)OC(C)(C)C)c3ccccc3)C(C)=C1C2(C)C
LABEL: zone 1
//
SMILES REPR: COC(=O)O[C@H]1C(=O)[C@]2(C)[C@@H](OC)C[C@H]3OC[C@@]3(OC(C)=O)[C@H]2[C@H](OC(=O)c2ccccc2)[C@]2(O)C[C@H](OC(=O)[C@H](O)[C@@H](NC(=O)OC(C)(C)C)c3ccccc3)C(C)=C1C2(C)C
LABEL: zone 3
//
SMILES REPR: CO[C@H]1C[C@H]2OC[C@@]2(OC(C)=O)[C@H]2[C@H](OC(=O)c3ccccc3)[C@]3(O)C[C@H](OC(=O)[C@H](O)[C@@H](NC(=O)OC(C)(C)C)c4ccccc4)C(C)=C([C@@H](OC(=O)N(C)C)C(=O)[C@]12C)C3(C)C
LABEL: zone 3
//
SMILES REPR: COC(=O)O[C@H]1C[C@H]2OC[C@@]2(OC(C)=O)[C@H]2[C@H](OC(=O)c3ccccc3)[C@]3(O)C[C@H](OC(=O)[C@H](O)[C@@H](NC(=O)OC(C)(C)C)c4ccccc4)C(C)=C([C@@H](OC)C(=O)[C@]12C)C3(C)C
LABEL: zone 2
//
SMILES REPR: COC(=O)O[C@H]1C(=O)[C@]2(C)[C@@H](OC)C[C@H]3OC[C@@]3(OC(C)=O)[C@H]2[C@H](OC(=O)c2ccccc2)[C@]2(O)C[C@H](OC(=O)[C@H](O)[C@@H](NC(=O)N(C)C)c3ccccc3)C(C)=C1C2(C)C
LABEL: zone 2
//
SMILES REPR: COC(=O)O[C@H]1C[C@H]2OC[C@@]2(OC(C)=O)[C@H]2[C@H](OC(=O)c3ccccc3)[C@]3(O)C[C@H](OC(=O)[C@H](O)[C@H](CC(C)C)NC(=O)OC(C)(C)C)C(C)=C([C@@H](OC)C(=O)[C@]12C)C3(C)C
LABEL: zone 3
//
SMILES REPR: CO[C@H]1C(=O)[C@]2(C)CC[C@H]3OC[C@@]3(OC(C)=O)[C@H]2[C@H](OC(=O)c2ccccc2)[C@]2(O)C[C@H](OC(=O)[C@H](O)[C@@H](NC(=O)OC(C)(C)C)c3ccccc3)C(C)=C1C2(C)C
LABEL: zone 2
//
SMILES REPR: COC(=O)O[C@H]1C(=O)[C@]2(C)[C@@H](OC)C[C@H]3OC[C@@]3(OC(C)=O)[C@H]2[C@H](OC(=O)c2ccccc2)[C@]2(O)C[C@H](OC(=O)[C@H](O)[C@@H](NC(=O)c3ccccc3)c3ccccc3)C(C)=C1C2(C)C
LABEL: zone 2
//
SMILES REPR: COC(=O)O[C@H]1C[C@H]2OC[C@@]2(OC(C)=O)[C@H]2[C@H](OC(=O)c3ccccc3)[C@]3(O)C[C@H](OC(=O)[C@H](O)[C@@H](NC(=O)OC(C)(C)C)c4ccccn4)C(C)=C([C@@H](OC)C(=O)[C@]12C)C3(C)C
LABEL: zone 2
//
SMILES REPR: COC(=O)O[C@H]1C[C@H]2OC[C@@]2(OC(C)=O)[C@H]2[C@H](OC(=O)c3ccccc3)[C@]3(O)C[C@H](OC(=O)[C@H](O)[C@@H](NC(=O)c4ccccc4)c4ccccc4)C(C)=C([C@@H](OC)C(=O)[C@]12C)C3(C)C
LABEL: zone 1
//
SMILES REPR: COC(=O)O[C@H]1C(=O)[C@]2(C)[C@@H](OC)C[C@H]3OC[C@@]3(OC(C)=O)[C@H]2[C@H](OC(=O)c2ccccc2)[C@]2(O)C[C@H](OC(=O)[C@H](O)[C@H](CC(C)C)NC(=O)OC(C)(C)C)C(C)=C1C2(C)C
LABEL: zone 3
//
SMILES REPR: CO[C@H]1C[C@H]2OC[C@@]2(OC(C)=O)[C@H]2[C@H](OC(=O)c3ccccc3)[C@]3(O)C[C@H](OC(=O)[C@H](O)[C@@H](NC(=O)OC(C)(C)C)c4ccccn4)C(C)=C([C@@H](OC(=O)N(C)C)C(=O)[C@]12C)C3(C)C
LABEL: zone 1

---

List of Papp B→A values.
# PROCEDURE TEXT: Caco-2 cell monolayer membrane transport assay
# SETTINGS: human, Caco-2

SMILES REPR: CCSC(=O)O[C@H]1C[C@H]2OC[C@@]2(OC(C)=O)[C@H]2[C@H](OC(=O)c3ccccc3)[C@]3(O)C[C@H](OC(=O)[C@H](O)[C@@H](NC(=O)N(C)C)c4ccccc4)C(C)=C([C@@H](OC)C(=O)[C@]12C)C3(C)C
Papp B→A, ×10⁻⁶ cm/s: 37.2
//
SMILES REPR: CO[C@H]1C(=O)[C@]2(C)[C@@H](OC(=O)N(C)C)C[C@H]3OC[C@@]3(OC(C)=O)[C@H]2[C@H](OC(=O)c2ccccc2)[C@]2(O)C[C@H](OC(=O)[C@H](O)[C@@H](NC(=O)OC(C)(C)C)c3ccccc3)C(C)=C1C2(C)C
Papp B→A, ×10⁻⁶ cm/s: 26
//
SMILES REPR: CO[C@H]1C(=O)[C@]2(C)[C@@H](OC(=O)N(C)C)C[C@H]3OC[C@@]3(OC(C)=O)[C@H]2[C@H](OC(=O)c2ccccc2)[C@]2(O)C[C@H](OC(=O)[C@H](O)[C@H](CC(C)C)NC(=O)OC(C)(C)C)C(C)=C1C2(C)C
Papp B→A, ×10⁻⁶ cm/s: 30.9
//
SMILES REPR: CO[C@H]1C(=O)[C@]2(C)C=C[C@@H](O)[C@](CO)(OC(C)=O)[C@H]2[C@H](OC(=O)c2ccccc2)[C@]2(O)C[C@H](OC(=O)[C@H](O)[C@@H](NC(=O)OC(C)(C)C)c3ccccc3)C(C)=C1C2(C)C
Papp B→A, ×10⁻⁶ cm/s: 27.2

---

# PROCEDURE TEXT: Caco-2 cell monolayer membrane transport assay
# SETTINGS: human, Caco-2, Papp A-B, Mean, Caco-2; A-B; mean of two samples
QUANTITY NAME: Papp A→B (×10⁻⁶ cm/s)

SMILES REPR: COC(=O)O[C@H]1C(=O)[C@]2(C)[C@@H](OC)C[C@H]3OC[C@@]3(OC(C)=O)[C@H]2[C@H](OC(=O)c2ccccc2)[C@]2(O)C[C@H](OC(=O)[C@H](O)[C@H](CC(C)C)NC(=O)OC(C)(C)C)C(C)=C1C2(C)C
READOUT VALUE: 9.02

SMILES REPR: CO[C@H]1C(=O)[C@]2(C)CC[C@H]3OC[C@@]3(OC(C)=O)[C@H]2[C@H](OC(=O)c2ccccc2)[C@]2(O)C[C@H](OC(=O)[C@H](O)[C@@H](NC(=O)OC(C)(C)C)c3ccccc3)C(C)=C1C2(C)C
READOUT VALUE: 5.03

SMILES REPR: COC(=O)O[C@H]1C[C@H]2OC[C@@]2(OC(C)=O)[C@H]2[C@H](OC(=O)c3ccccc3)[C@]3(O)C[C@H](OC(=O)[C@H](O)[C@H](CC(C)C)NC(=O)OC(C)(C)C)C(C)=C([C@@H](OC)C(=O)[C@]12C)C3(C)C
READOUT VALUE: 7.47

SMILES REPR: CCSC(=O)O[C@H]1C[C@H]2OC[C@@]2(OC(C)=O)[C@H]2[C@H](OC(=O)c3ccccc3)[C@]3(O)C[C@H](OC(=O)[C@H](O)[C@@H](NC(=O)N(C)C)c4ccccc4)C(C)=C([C@@H](OC)C(=O)[C@]12C)C3(C)C
READOUT VALUE: 3.92

SMILES REPR: COC(=O)O[C@H]1C(=O)[C@]2(C)[C@@H](OC)C[C@H]3OC[C@@]3(OC(C)=O)[C@H]2[C@H](OC(=O)c2ccccc2)[C@]2(O)C[C@H](OC(=O)[C@H](O)[C@@H](NC(=O)N(C)C)c3ccccc3)C(C)=C1C2(C)C
READOUT VALUE: 8.43
